In this section, each of the compounds is paired with its reported TGI.
System: NCI-H460 lung
Assay: NCI tumour cell line growth inhibition, 48 h
Reply numerically in µM, unit not repeated.

Some solved cases for reference:
[
  {
    "compound": "O=C(c1ccc(F)c(F)c1Nc1ccc(I)cc1F)N1CC(O)([C@H]2CCCCN2)C1",
    "TGI [µM]": 20.2
  },
  {
    "compound": "Cc1cc(N2CCOCC2)nc(N(CCNc2ccnc3cc(Cl)ccc23)Cc2ccco2)n1",
    "TGI [µM]": 23.9
  },
  {
    "compound": "CC(/C=C/C=C/C=C/C=C/C=C/C(O)=C1/C(=O)C(CCC(=O)O)N(C)C1=O)=C\\C(C)C(OC1CC(O)C(O)C(C)O1)C(C)C (centres undefined)",
    "TGI [µM]": 10.1
  },
  {
    "compound": "O=[N+]([O-])c1ccc(Oc2cccnc2)c([N+](=O)[O-])c1",
    "TGI [µM]": 47.8
  }
]

Now consider the entry below.
(Q) Reported TGI for NCI-H460 lung, given "O=c1oc2ccccc2c(-c2ccc(O)cc2)c1Oc1ccc(Cl)cc1" ?
(A) 54.4

----------
System: EKVX NSCLC
Assay: NCI tumour cell line growth inhibition, 48 h; in the data active = GI50 below about 0.43 µM; inactive = the rest
Thanks in advance; please answer with one of these: active, inactive

Example cases with answers are listed next.
[
  {
    "compound": "COC(=O)C1=C2C3=C(C(=O)c4ccccc4C3=O)N(Cc3ccccc3)C2(OC(C)=O)C=CC1=O (stereo not given)",
    "discreteLabel": "inactive"
  },
  {
    "compound": "Clc1ccc(-c2nc(-c3c[nH]c4ncccc34)cs2)cc1",
    "discreteLabel": "inactive"
  }
]

(Q) What did the test return for "NC(=O)c1cccc(N)c1" ?
(A) inactive

(Q) Could you do the same for "CC(C)[C@@H]1NC(=O)[C@]2(C)CSC(=N2)c2csc(n2)CNC(=O)C[C@@H](/C=C/CCS)OC1=O" , please?
(A) active

----------
In this section, each of the compounds is paired with its reported TGI.
Tested on: SW-620 colon
Test: NCI tumour cell line growth inhibition, 48 h

[
  {
    "compound": "COC1OC(COCc2ccc(Cl)cc2)C(OCc2ccc(Cl)cc2)C1O (configuration not stated)",
    "TGI": "29.6 µM"
  },
  {
    "compound": "CCOC(=O)c1c(N2CCOCC2)[nH]c(=O)c(C(c2c(O)c(C(=O)OCC)c(N3CCOCC3)[nH]c2=O)C(C)C)c1O",
    "TGI": "> 100 µM"
  },
  {
    "compound": "Cc1ccc(/C=C/C(=O)c2sc(C(N)=S)nc2C)cc1",
    "TGI": "> 100 µM"
  },
  {
    "compound": "CC(C)(C)C1CCC2c3c([nH]c4ccccc34)C3C(=O)N(c4cccc(Cl)c4)C(=O)C3C2C1 (configuration not stated)",
    "TGI": "23.2 µM"
  },
  {
    "compound": "C/C(=C/CNc1ncnc2c1ncn2CCC(=O)O)CO",
    "TGI": "> 100 µM"
  }
]

(Q) Please report the recorded TGI for "CCOc1ccc(/C=N/Nc2cc(C)nc3ccc(Cl)cc23)cc1" .
(A) 4.02 µM

(Q) Could you do the same for C/C=C1/CN2CCC34C5=CC(=O)C(c6cc7c(cc6OC)N(C)C6=C(C(=O)OC)CC8(CC)CCCN9CCC67C98)=CC5=NC23CCC1C4C(=O)OC (configuration not stated) , please?
(A) 21.8 µM

(Q) Could you do the same for "S=C1CNC(=S)CN1" , please?
(A) > 100 µM

(Q) Could you do the same for "Nc1ccc(S(=O)(=O)Nc2nc3ccccc3nc2Nc2ccc(S(N)(=O)=O)cc2)cc1" , please?
(A) > 100 µM

(Q) Could you do the same for "CN(C)c1cc2c(cc1Sc1nc3c(N)nccc3n1CCNCC(C)(C)C)OCO2" , please?
(A) 13.8 µM

(Q) Could you do the same for O=C1OCC2=C1C(c1cccc([N+](=O)[O-])c1)c1cc3c(cc1N2CCO)CCC3 (configuration not stated) , please?
(A) > 50 µM

----------
Test system: K-562 leukemia
Assay: NCI tumour cell line growth inhibition, 48 h
quantity: GI50

Some solved cases for reference:
[
  {
    "cpdSmiles": "Cc1cc(N2CCOCC2)nc(N(CCCNc2ccnc3cc(Cl)ccc23)Cc2ccc3c(c2)OCO3)n1",
    "quantity": "GI50",
    "endpointValue": "0.436 µM"
  },
  {
    "cpdSmiles": "O=C(/C=C\\c1cccc([N+](=O)[O-])c1)c1ccccc1",
    "quantity": "GI50",
    "endpointValue": "2.21 µM"
  },
  {
    "cpdSmiles": "O=C(/C=C/c1ccccc1Cl)c1ccc(O)cc1",
    "quantity": "GI50",
    "endpointValue": "3.12 µM"
  },
  {
    "cpdSmiles": "CN(C)c1cc2c(Nc3ccc4nc(Cc5ccccc5)[nH]c4c3)ncnc2cn1",
    "quantity": "GI50",
    "endpointValue": "> 19.8 µM"
  },
  {
    "cpdSmiles": "Cc1oncc1C(=O)Nc1ccc(C(F)(F)F)cc1",
    "quantity": "GI50",
    "endpointValue": "12.1 µM"
  }
]

Now consider the entry below.
(Q) Please report the recorded GI50 for "S=C(Nc1ccc(-c2nc3ccccc3s2)cc1)Nc1ccccn1" .
(A) 27.6 µM

----------
Tested on: BT-549 breast
Assay: NCI tumour cell line growth inhibition, 48 h
In this section, each of the compounds is paired with its reported TGI.

[
  {
    "compound": "O=C(O)c1ccc([N+](=O)[O-])c(P(=O)(O)O)c1",
    "subjectOfTest": "BT-549 breast",
    "TGI": "> 100 µM"
  },
  {
    "compound": "O=C(CSc1nc2ccc(Cl)cc2c(=O)n1-c1ccccc1)N=Nc1c(O)[nH]c2ccc(F)cc12",
    "subjectOfTest": "BT-549 breast",
    "TGI": "4.11 µM"
  },
  {
    "compound": "CN(C)C/C=C(/c1ccc(Br)cc1)c1cccnc1",
    "subjectOfTest": "BT-549 breast",
    "TGI": "> 100 µM"
  },
  {
    "compound": "CC(/C=C/C=C/C=C/C=C/C=C/C(O)=C1/C(=O)C(CCC(=O)O)N(C)C1=O)=C\\C(C)C(OC1CC(O)C(O)C(C)O1)C(C)C (stereo unspecified)",
    "subjectOfTest": "BT-549 breast",
    "TGI": "7.1 µM"
  },
  {
    "compound": "CC(C)=C1C(=O)C[C@]2(C)C/C=C(\\C)CC/C=C(\\C)CC[C@@H]12",
    "subjectOfTest": "BT-549 breast",
    "TGI": "24.8 µM"
  },
  {
    "compound": "COc1ccc(Cc2nc3cc(Cl)ccc3o2)cc1",
    "subjectOfTest": "BT-549 breast",
    "TGI": "64.4 µM"
  },
  {
    "compound": "CC(C)(C)c1ccc(O)c(Br)c1",
    "subjectOfTest": "BT-549 breast",
    "TGI": "> 100 µM"
  },
  {
    "compound": "CC(C)(C)C1CCC2c3c([nH]c4ccccc34)C3C(=O)N(c4cccc(Cl)c4)C(=O)C3C2C1 (stereo unspecified)",
    "subjectOfTest": "BT-549 breast",
    "TGI": "41.1 µM"
  }
]

(Q) Reported TGI for BT-549 breast, given "Cc1cc(C)nc(NC(=S)Nc2cccc(Cl)c2)c1" ?
(A) > 100 µM

(Q) Could you do the same for "S=C(Nc1ccc(-c2nc3ccccc3s2)cc1)Nc1ccccn1" , please?
(A) > 100 µM

(Q) Could you do the same for "COc1cccc2c3cccc(OC)c3c3[nH]cnc3c12" , please?
(A) 31.6 µM

(Q) Could you do the same for "Oc1ccc(Cl)cc1Cc1cc(Cl)cc(Cc2cc(Cl)ccc2O)c1O" , please?
(A) 9.61 µM

(Q) Could you do the same for C/C=C/C=C/C1=NN(c2cccc(S(=O)(=O)O)c2)C2(C1)C(Cl)C(=O)N2c1nc2ccccc2s1 (stereo unspecified) , please?
(A) 34 µM

(Q) Could you do the same for "Cc1ccc2c(=O)c(-c3nnsn3)c[nH]c2n1" , please?
(A) > 100 µM

(Q) Could you do the same for "Cc1cc(C)c2c(=O)n(CN3CCN(c4ccccc4)CC3)sc2n1" , please?
(A) > 100 µM

(Q) Could you do the same for "O=C(CN1CCOCC1)c1ccc2[nH]c(=O)oc2c1" , please?
(A) > 100 µM

----------
Tested on: HOP-92 NSCLC
Test: NCI tumour cell line growth inhibition, 48 h
quantity: TGI (µM)
Reply numerically in µM, unit not repeated.

[
  {
    "compound": "C=CC[Se]C(=O)c1ccccc1OC(C)=O",
    "unitTag": "µM",
    "TGI": 6.12
  },
  {
    "compound": "CC1C(=O)CCC1C(Sc1ccccc1)(Sc1ccccc1)Sc1ccccc1 (configuration not stated)",
    "unitTag": "µM",
    "TGI": 81.8
  }
]

Now consider the entry below.
(Q) Please report the recorded TGI for COC(=O)C1=C(C(=O)Nc2cccnc2)C2OC1(C(Cc1ccccc1)Oc1ccccc1)C1OC21 (configuration not stated) .
(A) 3
